target: IU-nucleoside hydrolase (Crithidia fasciculata, UniProt Q27546); experiment: Comparison of β-D-ribofuranoside substrates with IU-nucleoside hydrolase (Table 3); assay type: biochemical
Sequence (Q27546 whole entry): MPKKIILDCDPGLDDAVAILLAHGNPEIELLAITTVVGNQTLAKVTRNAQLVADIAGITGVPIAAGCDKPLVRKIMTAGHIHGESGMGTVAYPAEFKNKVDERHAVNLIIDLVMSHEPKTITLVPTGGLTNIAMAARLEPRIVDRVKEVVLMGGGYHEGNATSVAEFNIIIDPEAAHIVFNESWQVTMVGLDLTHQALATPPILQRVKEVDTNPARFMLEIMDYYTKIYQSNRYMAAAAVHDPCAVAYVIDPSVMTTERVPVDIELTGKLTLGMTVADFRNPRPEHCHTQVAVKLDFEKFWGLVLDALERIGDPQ
experimental.readout: Ki (µM)
# number only, unit µM dropped from output

INSERT INTO results (molecule, target_or_test_system, experimental_readout, unit_of_measurement, test_result) VALUES
  ('Nc1cccc(O[C@@H]2O[C@H](CO)[C@@H](O)[C@H]2O)c1 [Example 4, 3-aminophenyl β-D-ribofuranoside]', 'IU-nucleoside hydrolase (Crithidia fasciculata, UniProt Q27546)', 'Ki', 'µM', 72),
  ('O=C(Nc1cccc(O[C@@H]2O[C@H](CO)[C@@H](O)[C@H]2O)c1)C(F)(F)F', 'IU-nucleoside hydrolase (Crithidia fasciculata, UniProt Q27546)', 'Ki', 'µM', 27.7);

Please look at the following molecule next.
query: Look up Ki: OC[C@H]1O[C@@H](Oc2cccc3ccccc23)[C@H](O)[C@@H]1O [Example 2, α-naphthyl β-D-ribofuranoside]
result: 7.3

---

biological target: IAG-nucleoside hydrolase (Trypanosoma brucei, UniProt Q57ZL6); test: Comparison of β-D-ribofuranoside substrates with IAG-nucleoside hydrolase (Table 3); assay type: biochemical; details: at 200 μM substrate, pH 10.0
Sequence (Q57ZL6 1-327): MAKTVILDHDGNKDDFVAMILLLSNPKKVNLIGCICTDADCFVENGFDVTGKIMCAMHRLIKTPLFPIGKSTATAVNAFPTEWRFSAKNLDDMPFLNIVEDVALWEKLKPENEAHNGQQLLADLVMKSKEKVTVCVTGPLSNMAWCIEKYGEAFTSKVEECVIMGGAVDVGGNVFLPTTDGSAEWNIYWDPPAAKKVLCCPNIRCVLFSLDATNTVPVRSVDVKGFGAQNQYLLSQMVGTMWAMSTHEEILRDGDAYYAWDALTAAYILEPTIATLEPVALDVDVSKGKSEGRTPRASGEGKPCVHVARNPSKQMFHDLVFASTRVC
Lab note: anything with IAG NH rate at or over 0.05 min⁻¹ counts as Condition met; the rest go in Condition not met.

// below: answered compounds
INSERT INTO measurements (compound, assigned_class) VALUES
  ('OC[C@H]1O[C@@H](Oc2cccnc2)[C@H](O)[C@@H]1O [Example 11, 3-pyridyl β-D-ribofuranoside]', 'Condition not met'),
  ('Cc1cc(=O)oc2cc(O[C@@H]3O[C@H](CO)[C@@H](O)[C@H]3O)ccc12 [Example 10, 4-methylcoumarin-7-yl β-D-ribofuranoside]', 'Condition not met'),
  ('Nc1cccc(O[C@@H]2O[C@H](CO)[C@@H](O)[C@H]2O)c1 [Example 4, 3-aminophenyl β-D-ribofuranoside]', 'Condition not met'),
  ('O=C1CCCc2c(O[C@@H]3O[C@H](CO)[C@@H](O)[C@H]3O)cccc21 [Example 5, 1-tetralone-5-yl β-D-ribofuranoside]', 'Condition not met'),
  ('O=C1OC(c2ccc(O)cc2)(c2ccc(O[C@@H]3O[C@H](CO)[C@@H](O)[C@H]3O)cc2)c2ccccc21 (stereo partly drawn)', 'Condition not met');

query: Assess whether reported IAG NH rate for OC[C@H]1O[C@@H](Oc2cccc3ncccc23)[C@H](O)[C@@H]1O [Example 14, 5-quinolyl β-D-ribofuranoside] sits at 0.05 min⁻¹ or higher.
result: Condition not met

query: Assess whether reported IAG NH rate for OC[C@H]1O[C@@H](Oc2cccc3ccccc23)[C@H](O)[C@@H]1O [Example 2, α-naphthyl β-D-ribofuranoside] sits at 0.05 min⁻¹ or higher.
result: Condition not met

query: Assess whether reported IAG NH rate for O=Cc1ccc(O[C@@H]2O[C@H](CO)[C@@H](O)[C@H]2O)cc1 [Example 20, 4-formylphenyl β-D-ribofuranoside] sits at 0.05 min⁻¹ or higher.
result: Condition not met

query: Assess whether reported IAG NH rate for O=[N+]([O-])c1ccccc1O[C@@H]1O[C@H](CO)[C@@H](O)[C@H]1O [Example 9, 2-nitrophenyl β-D-ribofuranoside] sits at 0.05 min⁻¹ or higher.
result: Condition met

query: Assess whether reported IAG NH rate for NC(=O)c1ccc(O[C@@H]2O[C@H](CO)[C@@H](O)[C@H]2O)nc1 sits at 0.05 min⁻¹ or higher.
result: Condition met

query: Assess whether reported IAG NH rate for O=[N+]([O-])c1ccc(O[C@@H]2O[C@H](CO)[C@@H](O)[C@H]2O)nc1 [Example 13, 2-(5-nitropyridyl) β-D-ribofuranoside] sits at 0.05 min⁻¹ or higher.
result: Condition met
